Here the recorded Ab IC50-Cyno PBMC (Trial 1), TNFα release after cyno PGLYRP1/PGN is given for each entry.
# tgt: T1, cyno TREM-1 on cells (cynomolgus monkey, UniProt A0A2K5VHG8 21-233)
# T1 sequence: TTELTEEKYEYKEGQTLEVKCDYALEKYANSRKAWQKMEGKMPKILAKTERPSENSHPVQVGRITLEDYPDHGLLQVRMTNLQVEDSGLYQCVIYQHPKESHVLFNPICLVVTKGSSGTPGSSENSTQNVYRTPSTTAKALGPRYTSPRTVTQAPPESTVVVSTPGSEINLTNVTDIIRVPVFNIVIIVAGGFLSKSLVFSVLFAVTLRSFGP
# assay_notes: cell-based or functional assay
Provide only the numeric value, understood in nM.

Worked examples follow.
binder	result
44A5 (antibody, V domains shown) VH: EVQLLESGGGLVQPGGSLRLSCAASGFTFSTYAMNWVRQAPGKGLEWVSTVSGSGRPTYYADSVKGRFTISRDNSKNTLYLQMNSLRAEDTAVYYCAKAYYSNYLFDYWGQGTLVTVSS VL: EIVMTQSPAILSVSPGERATLSCRASQSVSSNLAWYQQKPGQAPRLLIYGASTRATGVPARFSGGGSGTDFTLTISSLQSEDFAVYYCQHCKTWPPLTFGGGTKVDLKR	0.0579
64D7 (antibody, V domains shown) VH: QVQLVQSGAEVKKPGASVKVSCKASGYTFTSYDINWVRQATGQGLEWMGWMNPNRGNTGYVKKFQGRVTMTRNTSISTAYMELSSLRSEDTAVYYCARRRAVYRSSWEWYFDLWGRGTLVTVSS VL: DTQMTQSPSSLSASEGDRVTITCQASQDIFNDLNWYQEKPGKAPKLLIYHASNLETGVPSRFSGSGSGTDYTFTISSLQPEDIATYYCQQYGNLPLTFGGGTKVEIKR	6.94

binder 57C10 (antibody, V domains shown) VH: QVQLVQSGAEVKKPGASVKVSCKASGYTFTRYDINWVRQATGQGLEWMGWLNPNSGNTGQTQKFRGRVTMTRNTSINTAYMELSSLRSEDTAVYYCARGGYTSAWRWYFDLWGRGTLVTVSS VL: DIQMTQSPSSLSASVGDRVTITCQASQDINNHLNWYQQKPGKAPKLLIYDVSNLETGVPSSFSGSGCGTDFTFTISSLQPEDIATYFCQQYDKLPLTFGGGTKVEIEG , Ab IC50-Cyno PBMC (Trial 1), TNFα release after cyno PGLYRP1/PGN observed: 0.154
